Value source: ChEMBL document CHEMBL3085664

- Measurement protocol: Cmax in mouse brain at 10 mg/kg, ip
- Assay type: ADME, organism-based
- Parameters: dose 10 mg/kg, route intraperitoneal
Metric name: Cmax (ng/mL)

Cc1c(P(=S)(c2ccccc2)c2ccccc2)n2ccccc2[n+]1C/C=C/c1ccccc1.[Br-]    43

###

- Target: Neuropeptide S receptor (Homo sapiens)
- Sequence (Q6W5P4 whole entry): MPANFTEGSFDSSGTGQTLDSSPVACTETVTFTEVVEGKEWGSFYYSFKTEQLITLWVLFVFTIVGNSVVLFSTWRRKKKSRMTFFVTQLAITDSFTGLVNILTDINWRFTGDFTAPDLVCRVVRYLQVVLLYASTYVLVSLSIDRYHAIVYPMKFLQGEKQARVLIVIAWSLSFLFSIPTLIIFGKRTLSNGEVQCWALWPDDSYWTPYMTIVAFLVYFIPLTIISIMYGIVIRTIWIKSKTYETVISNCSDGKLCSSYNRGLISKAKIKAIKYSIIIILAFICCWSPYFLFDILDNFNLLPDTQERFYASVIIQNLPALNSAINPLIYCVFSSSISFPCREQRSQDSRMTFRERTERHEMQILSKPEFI
- Measurement protocol: Antagonist activity at neuropeptide S receptor (unknown origin) expressed in CHO cells assessed as inhibition of NPS-induced calcium mobilization after 10 mins by fluorescence assay
- Type: functional, cell-based
- Experimental conditions: read-out: IC50
Parameter: IC50. Scope: all listed entries.
Metric name: IC50

Cc1nc2ccccn2c1P(=O)(c1ccccc1)c1ccccc1    27000 nM
Cc1c(P(=S)(c2ccccc2)c2ccccc2)n2ccccc2[n+]1C/C=C/c1ccc(F)cc1    3.4 nM
O=C(NCc1ccc(F)cc1)N1CCN2C(=O)OC(c3ccccc3)(c3ccccc3)C2C1 (configuration not stated)    420 nM
Cc1c(P(=S)(c2ccccc2)c2ccccc2)c2ccccc2n1C    2800 nM
Cc1c(P(=S)(c2ccccc2)c2ccccc2)n2ccccc2[n+]1C/C=C/c1cccc(Cl)c1    9.2 nM
Cc1c(P(=S)(c2ccccc2)c2ccccc2)n2ccccc2[n+]1C/C=C/c1ccc(F)c(Br)c1    45 nM
Cc1c(P(=S)(c2ccccc2)c2ccccc2)n2ccccc2[n+]1Cc1ccccc1    32 nM
c1ccc(P(c2ccccc2)c2cnc3ccccn23)cc1    35000 nM
Cc1c(P(=S)(c2ccccc2)c2ccccc2)n2ccccc2[n+]1CCCc1ccccc1    < 0.5 nM
Cc1c(P(=S)(c2ccccc2)c2ccccc2)[n+]2ccccc2n1C.[I-]    51 nM
Cc1c(P(=S)(c2ccccc2)c2ccccc2)n2ccccc2[n+]1C/C=C/c1ccccc1.[Br-]    0.96 nM
Cc1c(P(=S)(c2ccccc2)c2ccccc2)n2ccccc2[n+]1C/C=C/c1ccc(Br)cc1    5.7 nM
Cn1cc(P(=S)(c2ccccc2)c2ccccc2)c2ccccc21    7300 nM
COc1cccc(/C=C/C[n+]2c(C)c(P(=S)(c3ccccc3)c3ccccc3)n3ccccc32)c1    3.2 nM
Cc1c(P(=S)(c2ccccc2)c2ccccc2)n2ccccc2[n+]1C/C=C/c1ccc(Cl)cc1    2.2 nM
Cc1c(P(=S)(c2ccccc2)c2ccccc2)n2ccccc2[n+]1C/C=C/c1ccc2ccccc2c1    64 nM
CCC(C)(CCN1CCOCC1)N(Cc1cc2ccccc2n(C)c1=O)C(=O)C1CCCCC1 (configuration not stated)    55 nM
Cc1c(P(=S)(c2ccccc2)c2ccccc2)n2ccccc2[n+]1C/C=C/c1ccccc1Cl    3.4 nM
Cc1c(P(=S)(c2ccccc2)c2ccccc2)n2ccccc2[n+]1C/C=C/c1ccc(C(F)(F)F)cc1    4.5 nM
Cc1c(P(=S)(c2ccccc2)c2ccccc2)n2ccccc2[n+]1CCCCCc1ccccc1    13 nM
S=P(c1ccccc1)(c1ccccc1)c1cnc2ccccn12    4030 nM
Cc1c(P(=S)(c2ccccc2)c2ccccc2)n2ccccc2[n+]1C/C=C/c1cccc(Br)c1    23 nM
